- test-system: baculovirus-expressed VEGF receptor (human flk-1, KDR, VEGFR2) kinase domain (Homo sapiens)
- Construct: VEGF receptor (human flk-1, KDR, VEGFR2) kinase domain; made in house
- Sequence (P35968 834-1162 limits assumed): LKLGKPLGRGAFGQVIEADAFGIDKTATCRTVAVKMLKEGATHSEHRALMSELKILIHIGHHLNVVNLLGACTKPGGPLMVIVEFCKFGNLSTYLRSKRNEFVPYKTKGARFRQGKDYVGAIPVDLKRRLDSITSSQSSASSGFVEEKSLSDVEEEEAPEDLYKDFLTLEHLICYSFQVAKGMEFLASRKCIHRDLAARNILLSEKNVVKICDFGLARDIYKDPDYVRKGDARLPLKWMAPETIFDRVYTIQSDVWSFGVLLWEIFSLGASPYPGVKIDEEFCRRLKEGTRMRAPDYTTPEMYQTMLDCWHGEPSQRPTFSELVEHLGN
- test-protocol: VEGF receptor kinase activity inhibition, ELISA assay
- Type: biochemical
- conditions-used: 300 nM compound; 40 μM ATP; value printed in parentheses
measured-property: VEGFR kinase (% inhibition @ 300 nM)

Which VEGFR kinase (% inhibition @ 300 nM) is reported for this compound? CS(=O)(=O)NCCCn1c2ccccc2c2c3c(c4c(c21)-c1ccccc1CC4)C(=O)NC3=O
(0) %

Find the recorded VEGFR kinase (% inhibition @ 300 nM) belonging to CCOC(=O)CCn1c2ccccc2c2c3c(c4c(c21)-c1ccccc1CC4)C(=O)NC3=O and report it.
(7) %

* * *

- test-system: baculovirus-expressed PDGFβ receptor kinase domain (Homo sapiens)
- Construct: baculovirus-expressed PDGFβ receptor kinase domain; made in house
- Sequence (P09619 600-962 limits assumed): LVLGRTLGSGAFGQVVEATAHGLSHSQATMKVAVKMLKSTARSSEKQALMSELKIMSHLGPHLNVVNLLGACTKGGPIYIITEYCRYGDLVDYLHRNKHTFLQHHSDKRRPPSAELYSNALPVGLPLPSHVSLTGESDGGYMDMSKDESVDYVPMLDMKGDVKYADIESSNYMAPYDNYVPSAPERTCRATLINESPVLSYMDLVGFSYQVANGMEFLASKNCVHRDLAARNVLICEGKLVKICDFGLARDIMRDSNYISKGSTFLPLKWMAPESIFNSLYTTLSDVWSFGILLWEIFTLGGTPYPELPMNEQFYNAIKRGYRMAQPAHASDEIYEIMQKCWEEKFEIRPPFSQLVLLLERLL
- test-protocol: PDGF receptor kinase activity inhibition, ELISA assay
- Assay type: biochemical
- conditions-used: read-out: PDGFRβ (% inhibition @ 1 μM); 1 μM compound; 20 μM ATP; value printed in parentheses
Give inhibition at 1 µM for every item shown.
Answers are plain numbers, in %.

Example cases with answers are listed next.
Consider the compound Cn1c2ccccc2c2c3c(c4c(c21)-c1ccccc1C4)C(=O)NC3=O and give its measured inhibition at 1 µM.
0

What value of inhibition at 1 µM has been recorded for this entry: O=C1NC(=O)c2c1c1c(c3[nH]c4ccccc4c23)-c2ccccc2C1
6

I have this compound here, O=C1NC(=O)c2c1c1c(c3[nH]c4ccc(Br)cc4c23)-c2ccccc2CC1 , and I need its recorded inhibition at 1 µM.
20

Fill in: inhibition at 1 µM of O=c1[nH]c(=O)c2c1c1c(=O)c3ccccc3c1c1[nH]c3ccccc3c12 is ___
17

I'm hoping you can list inhibition at 1 µM for every compound here, please.
1. O=C1NC(=O)c2c1c1c(c3[nH]c4ccccc4c23)-c2ccccc2OC1
2. O=C1NC(=O)c2c1c1sc3ccccc3c1c1[nH]c3ccccc3c21
3. O=C1NC(=O)c2c1c1c(c3[nH]c4ncccc4c23)-c2ccccc2CC1

1: 6; 2: 11; 3: 10

* * *

- test-system: baculovirus-expressed human trkA cytoplasmic domain (Homo sapiens, UniProt P04629)
- Construct: baculovirus-expressed human trkA cytoplasmic domain; made in house
- Sequence (P04629 440-796 limits assumed): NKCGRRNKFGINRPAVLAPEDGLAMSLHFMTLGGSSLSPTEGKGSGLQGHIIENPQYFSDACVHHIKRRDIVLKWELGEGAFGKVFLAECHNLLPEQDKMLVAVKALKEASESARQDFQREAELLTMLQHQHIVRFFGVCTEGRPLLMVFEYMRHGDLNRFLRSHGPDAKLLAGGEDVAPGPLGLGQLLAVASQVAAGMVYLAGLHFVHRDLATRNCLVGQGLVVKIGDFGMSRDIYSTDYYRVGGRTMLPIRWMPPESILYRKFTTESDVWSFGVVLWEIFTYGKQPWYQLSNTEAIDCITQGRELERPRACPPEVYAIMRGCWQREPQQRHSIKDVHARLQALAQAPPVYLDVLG
- test-protocol: trkA tyrosine kinase activity inhibition, ELISA-based assay
- Assay type: biochemical
- conditions-used: read-out: trkA (% inhibition @ 300 nM); 300 nM compound; 40 μM ATP; value printed in parentheses
measured-property: inhibition at 0.3 µM (%)
Give bare numbers, in %.

Some entries whose results are on file:
// returns reported inhibition at 0.3 µM for input O=C1NC(=O)c2c1c1c(c3[nH]c4ccccc4c23)-c2ccccc2C1 [IV-1]
0

Which measured inhibition at 0.3 µM value corresponds to O=c1[nH]c(=O)c2c1c1c(=O)c3ccccc3c1c1[nH]c3ccccc3c12 [IV-2] ?
2

Query: inhibition at 0.3 µM; subject: O=C1NC(=O)c2c1c1c(c3[nH]c4ccc(Br)cc4c23)-c2ccccc2CC1 [IV-9]
6

If you can, please state the reported inhibition at 0.3 µM value of O=C1NCc2c3c(c4c(c21)c1ccccc1n4CCO)-c1ccccc1CC3 [Compound X-4] .
15

Given Cn1c2ccccc2c2c3c(c4c(c21)-c1ccccc1C4)C(=O)NC3=O [IV-3] , state its recorded inhibition at 0.3 µM.
18

Would you mind telling me what inhibition at 0.3 µM value was observed for O=C1NC(=O)c2c1c1c(c3[nH]c4ccccc4c23)-c2ccccc2OC1 [IV-11] ?
4

Continuing:
Given the entry O=C1NC(=O)c2c1c1sc3ccccc3c1c1[nH]c3ccccc3c21 [IV-10] , report its measured inhibition at 0.3 µM.
6
